Record form. Attribute: pIC50. Fill in for each entry.
target: Recombinant BTK^WT kinase (Homo sapiens, UniProt Q06187); experiment: BTK WT binding affinity (LanthaScreen TR-FRET); settings: Kinase Tracer 236, 5 h incubation
Sequence (Q06187 whole entry): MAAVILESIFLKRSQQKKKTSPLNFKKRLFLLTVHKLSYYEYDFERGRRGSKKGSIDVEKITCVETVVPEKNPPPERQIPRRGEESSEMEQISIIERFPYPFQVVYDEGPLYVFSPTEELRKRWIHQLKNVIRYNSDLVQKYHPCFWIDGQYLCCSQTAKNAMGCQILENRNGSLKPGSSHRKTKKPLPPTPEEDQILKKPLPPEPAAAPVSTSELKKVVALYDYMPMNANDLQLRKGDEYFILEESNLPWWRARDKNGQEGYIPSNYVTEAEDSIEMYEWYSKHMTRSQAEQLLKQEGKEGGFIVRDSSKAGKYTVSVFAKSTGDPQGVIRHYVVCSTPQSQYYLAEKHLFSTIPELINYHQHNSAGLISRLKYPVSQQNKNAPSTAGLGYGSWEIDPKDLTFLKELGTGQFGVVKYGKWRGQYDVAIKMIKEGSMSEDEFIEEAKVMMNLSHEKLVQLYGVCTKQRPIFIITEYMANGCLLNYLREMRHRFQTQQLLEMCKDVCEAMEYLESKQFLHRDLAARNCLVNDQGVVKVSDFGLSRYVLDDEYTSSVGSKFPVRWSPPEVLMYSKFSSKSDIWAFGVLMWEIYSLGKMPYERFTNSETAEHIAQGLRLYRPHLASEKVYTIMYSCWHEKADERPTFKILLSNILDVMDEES
pIC50: −log10 of the molar value.

Consider the worked cases shown below.
- molecule: "COc1ccccc1C(=O)NCc1ccc(-c2nn(C3CCCOC3)c(N)c2C(N)=O)c(F)c1 (stereo not drawn) [Example 102]"
  result: "> 8.00"
- molecule: "COc1ccccc1C(=O)NCc1ccc(-c2nn(C3CCCC(C(=O)N(C)C)C3)c(N)c2C(N)=O)cc1 (single isomer, unassigned) [Example 70]"
  result: "> 8.00"
- molecule: "COc1ccccc1C(=O)NCc1ccc(-c2nn(C3CCCC3F)c(N)c2C(N)=O)cc1 (stereo not drawn) [Example 103]"
  result: "> 8.00"

Items follow; give pIC50 for each.
1. COc1ccccc1C(=O)NCc1ccc(-c2nn(C[C@@H]3CCCNC3)c(N)c2C(N)=O)cc1 [Example 38]
2. COc1ccccc1C(=O)NCc1ccc(-c2nn(C3CC(C)OC(C)C3)c(N)c2C(N)=O)cc1 (stereo not drawn) [Example 104]

< 5.00
7.00 to 8.00

Items follow; give pIC50 for each.
1. COc1ccc(F)cc1C(=O)NCc1ccc(-c2nn(C(C(C)C)C(F)(F)F)c(N)c2C(N)=O)cc1 (stereo not drawn) [Example 180]
2. CONC(=O)C1CCC(n2nc(-c3ccc(CNC(=O)c4ccccc4OC)cc3)c(C(N)=O)c2N)CC1 (mixture of isomers) [Example 75]
3. COc1ccccc1C(=O)NCc1ccc(-c2nn(C(CO)CCl)c(N)c2C(N)=O)cc1 (stereo not drawn) [Example 66]
4. COc1ccccc1C(=O)NCc1ccc(-c2nn([C@H]3CC[C@H](F)C3)c(N)c2C(N)=O)cc1 (relative stereo) [Example 41]
5. COc1ccccc1C(=O)NCc1ccc(-c2nn(C3CCC(C)C3)c(N)c2C(N)=O)cc1 (stereo not drawn) [Example 5]

> 8.00
> 8.00
7.00 to 8.00
> 8.00
> 8.00

----------
target: Recombinant BTK^C481S kinase (Homo sapiens, UniProt Q06187, C481S); experiment: BTK C481S binding affinity (LanthaScreen TR-FRET); details: Kinase Tracer 236, 5 h incubation
Sequence (Q06187 whole entry C481S): as the sequence (Q06187 whole entry) above, with C481S counted along it
testReadout: IC50

Consider the worked cases shown below.
- molecule: "COc1ccccc1C(=O)NCc1ccc(-c2nn(C3CCOC3)c(N)c2C(N)=O)cc1F (stereo not drawn)"
  IC50: "< 10 nM"
- molecule: "COc1ccc(F)cc1C(=O)NCc1ccc(-c2nn(C3COCC3(F)F)c(N)c2C(N)=O)cc1 (stereo not drawn)"
  IC50: "< 10 nM"
- molecule: "COc1ccc(F)cc1C(=O)NCc1ccc(-c2nn(C(C)C(F)(F)F)c(N)c2C(N)=O)cc1 (stereo not drawn)"
  IC50: "< 10 nM"

Items follow; give IC50 for each.
1. COc1ccc(F)cc1C(=O)NCc1ccc(-c2nn(C3CCN(C)CC3(F)F)c(N)c2C(N)=O)cc1 (stereo not drawn)
2. CNc1c(C(N)=O)c(-c2ccc(CNC(=O)c3ccccc3OC)cc2)nn1C1CCOCC1
3. COc1ccc(F)cc1C(=O)NCc1ccc(-c2nn(C3CCCC3)c(N)c2C(N)=O)c(F)c1F
4. COc1ccc(F)cc1C(=O)NCc1ccc(-c2nn(C(C)C(F)F)c(N)c2C(N)=O)cc1 (stereo not drawn)
5. COc1ccccc1C(=O)NCc1ccc(-c2nn(C3CCCC(C(=O)N(C)C)C3)c(N)c2C(N)=O)cc1 (single isomer, unassigned)
6. COCOCCn1nc(-c2ccc(CNC(=O)c3ccccc3OC)cc2)c(C(N)=O)c1N
7. COc1ccccc1C(=O)NCc1ccc(-c2nn(CC(F)(F)F)c(N)c2C(N)=O)cc1

1. < 10 nM
2. < 10 nM
3. < 10 nM
4. < 10 nM
5. < 10 nM
6. 10 to 100 nM
7. < 10 nM

Items follow; give IC50 for each.
1. COc1ccccc1C(=O)NCc1ccc(-c2nn(C3CCOCC3C)c(N)c2C(N)=O)cc1 (mixture of isomers)
2. COc1ccc(F)cc1C(=O)NCc1ccc(-c2nn(CC(F)(F)F)c(N)c2C(N)=O)c(F)c1
3. COc1ccc(F)cc1C(=O)NCc1ccc(-c2nn(C3CCCOC3)c(N)c2C(N)=O)c(F)c1 (stereo not drawn)
4. COc1ccc(F)cc1C(=O)NCc1ccc(-c2nn(C(C)C(F)(F)F)c(N)c2C(N)=O)cc1F (stereo not drawn)

< 10 nM
< 10 nM
< 10 nM
< 10 nM

Items follow; give IC50 for each.
1. COc1ccccc1C(=O)NCc1ccc(-c2nn([C@@H]3CCC[C@H]3O)c(N)c2C(N)=O)cc1 (relative stereo)
2. COc1ccc(F)cc1C(=O)NCc1ccc(-c2nn(C(C3CC3)C(F)(F)F)c(N)c2C(N)=O)cc1 (stereo not drawn)
3. COc1ccc(F)cc1C(=O)NCc1ccc(-c2nn(C(c3ccccc3)C(F)(F)F)c(N)c2C(N)=O)cc1 (stereo not drawn)
4. COc1ccccc1C(=O)NCc1ccc(-c2nn(C3CCCC(=O)C3)c(N)c2C(N)=O)cc1 (stereo not drawn)

["< 10 nM", "< 10 nM", "< 10 nM", "100 to 1000 nM"]

Items follow; give IC50 for each.
1. COc1ccccc1C(=O)NCc1ccc(-c2nn(C3CCCOC3)c(N)c2C(N)=O)cc1F (stereo not drawn)
2. COc1ccc(F)cc1C(=O)NCc1ccc(-c2nn(C3CCNCC3(F)F)c(N)c2C(N)=O)cc1 (stereo not drawn)
3. COc1ccc(F)cc1C(=O)NCc1ccc(-c2nn(C(C3CCOC3)C(F)(F)F)c(N)c2C(N)=O)cc1 (mixture of isomers)

["< 10 nM", "< 10 nM", "10 to 100 nM"]

Items follow; give IC50 for each.
1. CONC(=O)C1CCC(n2nc(-c3ccc(CNC(=O)c4ccccc4OC)cc3)c(C(N)=O)c2N)CC1 (mixture of isomers)
2. COc1ccccc1C(=O)NCc1ccc(-c2nn(CCO)c(N)c2C(N)=O)cc1
3. COc1ccccc1C(=O)NCc1ccc(-c2nn(C3CCCC3)c(N)c2C(N)=O)cc1C
4. CCC(C)n1nc(-c2ccc(CNC(=O)c3ccccc3OC)cc2)c(C(N)=O)c1N (stereo not drawn)
5. COc1ccccc1C(=O)NCc1ccc(-c2nn([C@H]3CC[C@H](O)C3)c(N)c2C(N)=O)cc1 (relative stereo)

1. < 10 nM
2. 10 to 100 nM
3. < 10 nM
4. < 10 nM
5. < 10 nM

Items follow; give IC50 for each.
1. COc1ccc(F)cc1C(=O)NCc1ccc(-c2nn(C3CCOCC3)c(N)c2C(N)=O)cc1
2. COc1ccccc1C(=O)NCc1cc(-c2nn(C3CCCC3)c(N)c2C(N)=O)ccc1F
3. COc1ccccc1C(=O)NCc1ccc(-c2nn(-c3cccc(F)c3F)c(N)c2C(N)=O)cc1

< 10 nM
10 to 100 nM
< 10 nM

# input molecule: COc1ccccc1C(=O)NCc1ccc(-c2nn(C3CCC(C)(O)CC3)c(N)c2C(N)=O)cc1 (single isomer, unassigned) ; wanted: its IC50
< 10 nM

----------
Target: Recombinant EGFR (Homo sapiens, UniProt P00533)
Sequence (P00533 25-1210): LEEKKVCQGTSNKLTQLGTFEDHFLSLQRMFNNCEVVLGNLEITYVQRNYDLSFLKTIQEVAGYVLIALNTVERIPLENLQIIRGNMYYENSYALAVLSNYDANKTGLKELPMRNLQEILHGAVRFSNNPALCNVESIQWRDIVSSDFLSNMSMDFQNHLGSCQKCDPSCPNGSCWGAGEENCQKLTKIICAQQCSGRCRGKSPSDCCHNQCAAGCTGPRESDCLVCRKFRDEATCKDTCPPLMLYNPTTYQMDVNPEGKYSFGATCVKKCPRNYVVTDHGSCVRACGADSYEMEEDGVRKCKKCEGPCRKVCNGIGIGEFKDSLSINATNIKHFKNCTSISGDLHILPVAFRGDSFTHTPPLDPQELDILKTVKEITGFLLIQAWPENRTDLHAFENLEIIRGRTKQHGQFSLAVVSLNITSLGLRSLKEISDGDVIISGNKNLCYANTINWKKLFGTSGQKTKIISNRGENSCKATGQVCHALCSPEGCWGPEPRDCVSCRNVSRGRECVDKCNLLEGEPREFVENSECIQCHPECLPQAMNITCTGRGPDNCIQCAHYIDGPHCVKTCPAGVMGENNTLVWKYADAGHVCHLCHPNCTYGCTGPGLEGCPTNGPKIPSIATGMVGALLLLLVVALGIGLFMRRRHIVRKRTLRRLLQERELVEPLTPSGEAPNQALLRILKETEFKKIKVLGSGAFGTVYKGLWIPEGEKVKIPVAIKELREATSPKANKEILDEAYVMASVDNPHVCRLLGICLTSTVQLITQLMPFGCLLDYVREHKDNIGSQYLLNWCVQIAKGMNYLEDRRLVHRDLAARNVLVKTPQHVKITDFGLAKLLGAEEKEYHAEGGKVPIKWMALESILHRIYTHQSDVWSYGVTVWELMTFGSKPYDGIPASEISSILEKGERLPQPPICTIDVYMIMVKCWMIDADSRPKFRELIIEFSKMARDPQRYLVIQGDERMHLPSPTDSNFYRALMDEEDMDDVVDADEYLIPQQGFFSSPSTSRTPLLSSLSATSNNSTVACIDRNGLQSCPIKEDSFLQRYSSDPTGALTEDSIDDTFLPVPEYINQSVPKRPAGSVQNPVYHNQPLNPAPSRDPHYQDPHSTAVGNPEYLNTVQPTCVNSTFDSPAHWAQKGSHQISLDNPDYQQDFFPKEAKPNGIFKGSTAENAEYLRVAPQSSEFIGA
Assay: EGFR binding affinity (LanthaScreen TR-FRET)
Conditions: Kinase Tracer 199, 5 h incubation
Protocol: EGFR binding affinity was determined using a time-resolved fluorescence resonance energy transfer (TR-FRET) methodology. […] Recombinant EGFR and all LanthaScreen™ components were purchased from Invitrogen. Measurements were performed in a reaction volume of 30 μL using half-area 96-well assay plates. […]
testReadout: IC50

Consider the worked cases shown below.
- compound: "COc1ccccc1C(=O)NCc1ccc(-c2nn(C(C)C3CC3)c(N)c2C(N)=O)cc1 (stereo not shown) [Example 131]"
  targetOfAssay: "Recombinant EGFR (Homo sapiens, UniProt P00533)"
  IC50: "100 to 1000 nM"
- compound: "COc1ccccc1C(=O)NCc1ccc(-c2nn(C3CCOC(C)C3)c(N)c2C(N)=O)cc1 (mixture of isomers) [Example 85]"
  targetOfAssay: "Recombinant EGFR (Homo sapiens, UniProt P00533)"
  IC50: "100 to 1000 nM"
- compound: "COc1ccccc1C(=O)NCc1ccc(-c2nn(-c3ccc(F)cc3F)c(N)c2C(N)=O)cc1 [Example 15]"
  targetOfAssay: "Recombinant EGFR (Homo sapiens, UniProt P00533)"
  IC50: "1000 to 10000 nM"

Items follow; give IC50 for each.
1. COc1ccccc1C(=O)NCc1ccc(-c2nn(C3CCC(F)(F)CC3)c(N)c2C(N)=O)cc1 [Example 68]
2. COc1ccccc1C(=O)NCc1ccc(-c2nn(C3CCCC3)c(N)c2C(N)=O)c(F)c1 [Example 130]
3. CCC(n1nc(-c2ccc(CNC(=O)c3ccccc3OC)cc2)c(C(N)=O)c1N)C(F)(F)F (stereo not shown) [Example 170]
4. COc1ccccc1C(=O)NCc1ccc(-c2nn(C3CCOC3C)c(N)c2C(N)=O)cc1 (single isomer, unassigned) [Example 77]
5. COc1ccccc1C(=O)NCc1ccc(-c2nn(C(C)CO)c(N)c2C(N)=O)cc1 (stereo not shown) [Example 135]
6. COc1ccccc1C(=O)NCc1ccc(-c2nn(C3CCCC3)c(N)c2C(N)=O)cc1C [Example 62]
7. COc1ccc(F)cc1C(=O)NCc1ccc(-c2nn(C(C3CCCCC3)C(F)(F)F)c(N)c2C(N)=O)cc1 (stereo not shown) [Example 192]

["100 to 1000 nM", "1000 to 10000 nM", "1000 to 10000 nM", "100 to 1000 nM", "> 10000 nM", "100 to 1000 nM", "1000 to 10000 nM"]

Items follow; give IC50 for each.
1. COc1ccccc1C(=O)NCc1ccc(-c2nn(C(C)C(F)F)c(N)c2C(N)=O)cc1 (stereo not shown) [Example 126]
2. COc1ccccc1C(=O)NCc1ccc(-c2nn(C3CCC(=O)C3)c(N)c2C(N)=O)cc1 (stereo not shown) [Example 13]
3. COc1ccccc1C(=O)NCc1ccc(-c2nn(CC(F)(F)F)c(N)c2C(N)=O)cc1F [Example 129]
4. COc1ccccc1C(=O)NCc1ccc(-c2nn(C(C)(C)C)c(N)c2C(N)=O)cc1 [Example 3]

1000 to 10000 nM
1000 to 10000 nM
1000 to 10000 nM
100 to 1000 nM

Items follow; give IC50 for each.
1. CCn1nc(-c2ccc(CNC(=O)c3cc(F)ccc3OC)cc2)c(C(N)=O)c1N [Example 195]
2. COc1ccccc1C(=O)NCc1cc(F)c(-c2nn(C3CCCC3)c(N)c2C(N)=O)cc1F [Example 156]

1. 1000 to 10000 nM
2. > 10000 nM
